Study System: GlgC (Synechocystis sp. PCC 6803, UniProt P52415)
Construct: shorter variant lacking first 10 residues of P52414, starts VKRVLAIILGG (primer 3); N-terminal His-tag (pET28a), E. coli Rosetta-gami (DE3); active as tetramer
Assay Info: continuous GlgC-GlgA1 / pyruvate kinase / LDH coupled assay, A340
Assay type: biochemical
Readout Label: pEC50
The value called pEC50 is obtained by taking minus log10 of the concentration in mol/L.

Req: Which measured pEC50 value corresponds to O=C(O)[C@H](O)COP(=O)(O)O ?
Resp: 3.37

====

Study System: GlgC (Synechocystis sp. PCC 6803, UniProt P52415)
Construct: shorter variant lacking first 10 residues of P52414, starts VKRVLAIILGG (primer 3); N-terminal His-tag (pET28a), E. coli Rosetta-gami (DE3); active as tetramer
Assay Info: continuous GlgC-GlgA1 / pyruvate kinase / LDH coupled assay, A340
Format: biochemical
Measurement Parameters: activator; no 3-PGA; 0.25 mM Glc-1P, 2 mM ATP, 12 mM MgCl2, pH 8.0, 30 °C
Readout Label: pEC50
Hey, just a heads up that pEC50 is the negative log base 10 of the concentration in molar.

Req: // lookup pEC50 for O=P(O)(O)OC[C@H]1OC(O)(CO)[C@@H](O)[C@@H]1O (stereo partly shown)
Resp: 2.64

====

Study System: GlgC (Synechocystis sp. PCC 6803)
Construct: shorter variant lacking first 10 residues of P52414, starts VKRVLAIILGG (primer 3); N-terminal His-tag (pET28a), E. coli Rosetta-gami (DE3); active as tetramer
Sequence (P52415 11-439): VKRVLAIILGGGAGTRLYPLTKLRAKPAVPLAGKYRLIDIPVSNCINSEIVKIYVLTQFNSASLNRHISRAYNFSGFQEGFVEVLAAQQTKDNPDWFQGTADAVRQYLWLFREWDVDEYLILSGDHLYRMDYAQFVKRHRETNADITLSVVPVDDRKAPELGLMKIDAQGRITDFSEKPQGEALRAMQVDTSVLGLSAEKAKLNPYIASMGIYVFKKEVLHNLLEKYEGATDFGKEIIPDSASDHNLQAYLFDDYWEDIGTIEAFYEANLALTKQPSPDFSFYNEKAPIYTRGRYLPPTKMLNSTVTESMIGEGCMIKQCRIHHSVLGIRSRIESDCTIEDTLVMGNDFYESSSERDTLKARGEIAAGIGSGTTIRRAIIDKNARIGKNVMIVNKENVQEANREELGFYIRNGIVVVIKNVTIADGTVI
Assay Info: continuous GlgC-GlgA1 / pyruvate kinase / LDH coupled assay, A340
Assay type: biochemical
Measurement Parameters: read-out: 3-PGA (mM) / 0.00
Readout Label: IC50 (mM)
Expressed in mM, but write only the number.

Req: Value lookup for IC50; key = O=P(O)(O)O [Pi]
Resp: 0.42
